- test.target: Bromodomain-containing protein 4 (Homo sapiens)
- measurement.description: Selectivity interaction (AlphaScreen) EUB0001074a BRD4
pIC50: −log10 of the molar value.
value.type: pIC50

> print(dat)
                            smiles.notation  value.type  result
1  CCc1cc2cc(NS(=O)(=O)c3ccc(C#N)cc3)ccc2n(CC)c1=O       pIC50  < 3.70

###

- test.target: Cyclin-dependent kinase 12 (Homo sapiens, UniProt Q9NYV4)
- Sequence (Q9NYV4 whole entry): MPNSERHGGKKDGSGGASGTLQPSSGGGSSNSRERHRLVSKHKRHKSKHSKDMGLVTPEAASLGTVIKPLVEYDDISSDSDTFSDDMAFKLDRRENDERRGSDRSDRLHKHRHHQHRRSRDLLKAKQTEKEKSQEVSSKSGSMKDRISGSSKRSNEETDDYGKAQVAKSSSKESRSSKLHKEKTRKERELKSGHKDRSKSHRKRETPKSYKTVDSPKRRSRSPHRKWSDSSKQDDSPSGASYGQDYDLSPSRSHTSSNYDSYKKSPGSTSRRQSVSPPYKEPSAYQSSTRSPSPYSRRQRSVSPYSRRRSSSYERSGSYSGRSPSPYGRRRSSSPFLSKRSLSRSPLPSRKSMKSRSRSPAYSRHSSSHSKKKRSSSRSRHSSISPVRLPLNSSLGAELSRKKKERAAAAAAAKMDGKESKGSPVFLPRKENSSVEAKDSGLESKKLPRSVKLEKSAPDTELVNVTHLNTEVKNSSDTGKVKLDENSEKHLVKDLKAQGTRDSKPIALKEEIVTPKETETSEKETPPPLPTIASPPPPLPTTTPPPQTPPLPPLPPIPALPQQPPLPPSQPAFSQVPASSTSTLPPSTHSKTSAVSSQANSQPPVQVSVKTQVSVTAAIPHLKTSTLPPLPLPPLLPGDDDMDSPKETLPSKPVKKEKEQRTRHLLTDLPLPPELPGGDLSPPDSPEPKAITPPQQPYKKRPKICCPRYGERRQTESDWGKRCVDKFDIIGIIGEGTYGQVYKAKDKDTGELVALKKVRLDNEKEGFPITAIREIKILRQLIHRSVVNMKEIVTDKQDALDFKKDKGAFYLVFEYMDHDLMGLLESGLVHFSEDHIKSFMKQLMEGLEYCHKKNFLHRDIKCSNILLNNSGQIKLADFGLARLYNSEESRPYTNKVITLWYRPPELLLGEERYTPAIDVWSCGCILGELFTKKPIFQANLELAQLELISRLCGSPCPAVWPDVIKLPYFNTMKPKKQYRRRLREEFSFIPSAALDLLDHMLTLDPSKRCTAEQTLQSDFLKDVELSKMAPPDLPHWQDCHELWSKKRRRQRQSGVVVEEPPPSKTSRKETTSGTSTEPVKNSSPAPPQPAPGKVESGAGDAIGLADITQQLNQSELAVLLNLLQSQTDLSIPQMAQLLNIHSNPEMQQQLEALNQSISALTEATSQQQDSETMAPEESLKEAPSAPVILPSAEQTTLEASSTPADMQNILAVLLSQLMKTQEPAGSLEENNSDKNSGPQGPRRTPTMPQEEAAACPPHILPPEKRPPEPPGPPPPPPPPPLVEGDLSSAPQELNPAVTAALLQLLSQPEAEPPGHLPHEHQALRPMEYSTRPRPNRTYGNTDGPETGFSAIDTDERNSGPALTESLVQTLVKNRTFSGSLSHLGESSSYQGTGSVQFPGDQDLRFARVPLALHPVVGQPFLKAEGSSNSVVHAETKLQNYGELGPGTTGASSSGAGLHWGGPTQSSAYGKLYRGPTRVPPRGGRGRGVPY
- measurement.description: Selectivity interaction (Western blot assay (pull-down blockage of CDK7-cyclin H using lysates from HAP1 cells)) EUB0001635a CDK12
- Type: cell-based
value.type: IC50

> print(dat)
                            smiles.notation     result
1  C=CC(=O)Nc1ccc(C(=O)Nc2n[nH]c3c2CN(C(=O)N[C@H](CN(C)C)c2ccccc2)C3(C)C)cc1  > 1000 nM

###

- test.target: UniProtKB Q13627
value.type: IC50

> print(dat)
                            smiles.notation  value.type   result
1  CN(c1ncccc1CNc1ccnc(-c2nc3c(F)c(Cl)ccc3[nH]2)n1)S(C)(=O)=O        IC50  > 10 µM

###

- test.target: Epidermal growth factor receptor (Homo sapiens)
- Sequence (P00533 whole entry): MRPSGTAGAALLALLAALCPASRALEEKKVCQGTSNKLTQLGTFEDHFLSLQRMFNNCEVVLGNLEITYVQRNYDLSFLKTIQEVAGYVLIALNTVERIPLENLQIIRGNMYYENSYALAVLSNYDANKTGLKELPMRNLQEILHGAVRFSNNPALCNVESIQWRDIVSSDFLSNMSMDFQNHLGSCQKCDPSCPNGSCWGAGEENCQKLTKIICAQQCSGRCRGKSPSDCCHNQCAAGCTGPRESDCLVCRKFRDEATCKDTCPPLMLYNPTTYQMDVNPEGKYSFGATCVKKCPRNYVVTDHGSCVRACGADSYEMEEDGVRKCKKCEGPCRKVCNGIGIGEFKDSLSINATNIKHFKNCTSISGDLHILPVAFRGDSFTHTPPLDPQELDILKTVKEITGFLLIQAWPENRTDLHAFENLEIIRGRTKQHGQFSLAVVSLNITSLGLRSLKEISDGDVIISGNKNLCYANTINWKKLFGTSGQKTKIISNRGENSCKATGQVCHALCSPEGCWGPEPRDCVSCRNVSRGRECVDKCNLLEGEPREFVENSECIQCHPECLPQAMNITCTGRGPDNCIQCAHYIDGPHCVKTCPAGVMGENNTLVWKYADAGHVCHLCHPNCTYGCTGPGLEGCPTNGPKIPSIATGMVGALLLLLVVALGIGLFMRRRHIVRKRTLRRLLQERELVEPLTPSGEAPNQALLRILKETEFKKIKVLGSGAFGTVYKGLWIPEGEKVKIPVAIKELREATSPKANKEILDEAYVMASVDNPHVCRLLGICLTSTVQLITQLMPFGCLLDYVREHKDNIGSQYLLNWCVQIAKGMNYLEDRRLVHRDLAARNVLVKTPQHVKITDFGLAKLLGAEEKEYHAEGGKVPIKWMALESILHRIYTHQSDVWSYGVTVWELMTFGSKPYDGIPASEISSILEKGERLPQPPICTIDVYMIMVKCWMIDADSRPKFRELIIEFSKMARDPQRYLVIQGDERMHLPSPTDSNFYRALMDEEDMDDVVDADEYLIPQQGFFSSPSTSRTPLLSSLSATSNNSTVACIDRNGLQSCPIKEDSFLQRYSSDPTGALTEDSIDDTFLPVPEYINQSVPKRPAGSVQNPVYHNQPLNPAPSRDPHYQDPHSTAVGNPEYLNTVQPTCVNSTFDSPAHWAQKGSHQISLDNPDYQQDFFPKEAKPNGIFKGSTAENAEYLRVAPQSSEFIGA
- measurement.description: Selectivity interaction (TR-FRET binding assay) EUB0000644a EGFR
pIC50: −log10 of the molar value.
value.type: pIC50

> print(dat)
                            smiles.notation  result
1  CC[C@@H]1CN(C(=O)NCC(F)(F)F)C[C@@H]1c1cnc2cnc3[nH]ccc3n12  < 5.00

###

- test.target: Histone-arginine methyltransferase CARM1 (Homo sapiens)
- Sequence (Q86X55 whole entry): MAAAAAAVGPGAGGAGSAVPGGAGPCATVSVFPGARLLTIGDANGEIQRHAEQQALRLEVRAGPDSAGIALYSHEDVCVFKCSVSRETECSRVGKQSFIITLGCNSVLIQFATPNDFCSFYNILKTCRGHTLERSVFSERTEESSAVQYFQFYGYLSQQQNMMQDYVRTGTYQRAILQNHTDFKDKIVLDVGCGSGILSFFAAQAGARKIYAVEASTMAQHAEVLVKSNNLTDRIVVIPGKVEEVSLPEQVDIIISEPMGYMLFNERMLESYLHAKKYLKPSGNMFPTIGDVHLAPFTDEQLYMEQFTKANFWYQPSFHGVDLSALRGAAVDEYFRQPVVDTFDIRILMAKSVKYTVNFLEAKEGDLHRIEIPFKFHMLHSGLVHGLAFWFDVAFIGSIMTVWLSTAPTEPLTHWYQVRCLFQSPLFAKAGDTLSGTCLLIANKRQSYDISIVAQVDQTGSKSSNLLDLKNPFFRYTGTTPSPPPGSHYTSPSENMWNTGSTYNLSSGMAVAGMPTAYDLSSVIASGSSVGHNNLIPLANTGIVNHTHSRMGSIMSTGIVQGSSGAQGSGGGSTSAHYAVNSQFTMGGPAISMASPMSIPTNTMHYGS
- measurement.description: Selectivity interaction (Western Blot (dimethylation of BAF155 (BAF155me2a/BAF155) in U266B1 cells)) EUB0000255b CARM1
- Assay type: cell-based, U-266
pIC50: −log10 of the molar value.
value.type: pIC50

> print(dat)
                            smiles.notation  value.type  result
1  COCCN1CCC(c2cc(CN(C)C(=O)c3cccc(Oc4ccccc4)c3)ccn2)CC1       pIC50  < 8.52
